biological target: SARS-CoV-2 Wuhan-Hu-1 NTD (SARS-CoV-2 Wuhan-Hu-1, UniProt P0DTC2); experiment: BLI

binder: C1621 IgG (antibody, V domains shown) VH: EVQLVESGGGLVKPGGSLRLSCAASGFSFNNSNMNWVRQAPGKGLEWVSSISSSSNYIYYVDSVKGRFTISRDNAKNSLYLQMSSLRVEDTAVYYCASAQSSARWGGYYQYAMDVWGQGTTVTVSS VL: EIVMTQSPATLSVSPGERATLSCRASQSVSSSLAWYQQKPGQAPRLLIYDASTRATGIPARFSGRGSGTEFTLTISSLQSEDFAVYYCQQYYNWPPWTFGQGTKVEI
binding result: binds
//
binder: C1557 IgG (antibody, V domains shown) VH: QVQLVQSGAEVRKPGASVKVSCKVSGYTLTELSMHWVRQSPGKGLEWMGSFDPDDGETFYAQKFQGRITMSEDTSTDTAYMELSSLRSEDTAVYFCATDSNMIVVRGNYYYSGLDVWGQGTTVTVSS VL: EIVMTQSPATLSVSPGERATLSCRASQSVAGNLAWYQQKPGLAPRLLIQGPSTRATGIPARFSGSGSGTEFTLTISSLQSEDFAVYYCHQYNNWPWTFGQGTKVEIK
binding result: binds
//
binder: C1520 IgG (antibody, V domains shown) VH: EVQLVESGGGLVQPGGSLRLACVASGFTFSIYEMNWVRQAPGKGLEWVSYITTSGHARYNADSVKGRFTISRDNSKNSFYLQMNSLRAEDTAIYYCARPQYHYYDTSTYHSYGFDIWGQGTMVTVSS VL: QLVLTQSPSASASLGASVNLTCTLSSGHNSYAIAWHQQQPEKGPRYLMSLNSDGSHTKGDGIPDRFSGSSSGAERFLTISSLQSEDEADYYCQTWDTGIRVFGGGTRLTVL
binding result: binds

These data points were gathered from paper PMC8986478.
